# credit: the supplement of paper PMC10567573

B1: TEKT4 (parent)
chain: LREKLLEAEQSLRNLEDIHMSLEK

variants of: B1; assay: protein stability index of a GFP-peptide fusion (GPS, HEK-293T) (PSI 1-6); higher = more stable; settings: c terminus: a fixed tail appended;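 further: lentivirally expressed fusions sorted by FACS into six bins by GFP to DsRed ratio, PSI derived from sequencing read proportions per bin multiplied by bin number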
Provide the reported protein stability index of each item.
Answers are plain numbers.

Some solved cases for reference:
BIOPOLYMER SEQUENCE	protein stability index
LREKLLEAEQSLRNLEDIHMTLEK [S21T]	2.81
LREKLLEAEQSTRNLEDIHMSLEK [L12T]	3.17
LREKLLEAEVSLRNLEDIHMSLEK [Q10V]	2.08
LREKLLEAEWSLRNLEDIHMSLEK [Q10W]	1.98
LREKLLEAEQSLQNLEDIHMSLEK [R13Q]	3.43
LREVLLEAEQSLRNLEDIHMSLEK [K4V]	2.51
LREKLLEAHQSLRNLEDIHMSLEK [E9H]	2.58
LREKLLEAEQSLHNLEDIHMSLEK [R13H]	3.38
LREKLLLAEQSLRNLEDIHMSLEK [E7L]	1.75
LREKLLEAEQSARNLEDIHMSLEK [L12A]	3.84

Need protein stability index for each of these variants.
1. LREKLLEAEQSLRNSEDIHMSLEK [L15S]
2. LREKLLEAEQSLRNCEDIHMSLEK [L15C]

3.36
2.81

Need protein stability index for each of these variants.
1. LREKLLEAEQSYRNLEDIHMSLEK [L12Y]
2. LREKLLEAEQSLRNLEDIHDSLEK [M20D]
3. LREKLLEAETSLRNLEDIHMSLEK [Q10T]
4. LREKLLEAEQSLYNLEDIHMSLEK [R13Y]

[2.03, 2.71, 2.77, 2.11]

Need protein stability index for each of these variants.
1. LREKLLIAEQSLRNLEDIHMSLEK [E7I]
2. LREKELEAEQSLRNLEDIHMSLEK [L5E]
3. LREKLCEAEQSLRNLEDIHMSLEK [L6C]
4. LTEKLLEAEQSLRNLEDIHMSLEK [R2T]
5. LREKLLEPEQSLRNLEDIHMSLEK [A8P]
6. LRETLLEAEQSLRNLEDIHMSLEK [K4T]
7. LREKLLEAEQSLRNLEDIAMSLEK [H19A]
8. LREKLLEAEQSLRNLEDIHMSLEH [K24H]

2.06
5.05
2.92
2.83
4.59
3.9
1.76
4

Need protein stability index for each of these variants.
1. LREKLLEAEQSLRNMEDIHMSLEK [L15M]
2. LRWKLLEAEQSLRNLEDIHMSLEK [E3W]
3. LRHKLLEAEQSLRNLEDIHMSLEK [E3H]

1. 2.56
2. 1.81
3. 2.71

Need protein stability index for each of these variants.
1. LREKLLEAEQSLRNLEDIHMSLEC [K24C]
2. LREKLLEAEQSLRNLEDIHMDLEK [S21D]
3. LREKLLEAEQSLRNLEDIGMSLEK [H19G]
4. LREKLLEAEQSDRNLEDIHMSLEK [L12D]
5. LREKLLEAEQSLRNLMDIHMSLEK [E16M]
6. LRQKLLEAEQSLRNLEDIHMSLEK [E3Q]
7. LREKLLEAEQSLRNLEKIHMSLEK [D17K]

2.09
1.9
2.02
5.05
1.93
2.82
2.32

Need protein stability index for each of these variants.
1. LREKLLEAEQSLRNLWDIHMSLEK [E16W]
2. LREKLLEAEQSERNLEDIHMSLEK [L12E]
3. LREKLLEAEQSLRNLNDIHMSLEK [E16N]
4. LREKLLEAEQSLRNLEDIHMSLES [K24S]
5. LREKLLEAEQSLRNLEDIHMSLYK [E23Y]
6. LREKLLEAEQSLRNLEDIHMGLEK [S21G]
7. LREKLLEAEQDLRNLEDIHMSLEK [S11D]
8. LREKLLEAEQSLRNLEDIHMCLEK [S21C]

1. 1.18
2. 4.97
3. 1.94
4. 2.35
5. 1.93
6. 3.25
7. 2.57
8. 1.56

Need protein stability index for each of these variants.
1. LREKLLEAEQALRNLEDIHMSLEK [S11A]
2. LREKLLEAEQSLRNLCDIHMSLEK [E16C]
3. LREKLLEAEQSLTNLEDIHMSLEK [R13T]
4. LREKLLEAEQSLRNLPDIHMSLEK [E16P]

1: 1.5; 2: 1.33; 3: 2.61; 4: 2.71
